- Assay summary: drug combination growth inhibition, ovarian cancer – cell-based, oncology-focused library, rucaparib conditional, profiling panel (AID 1508598)
- Run parameters: patient-derived ovarian cancer cells, CellTiter-Glo viability, 144 h; at 0.00488 µM; OCI-C5x cells; with rucaparib 10 µM; hits give low values; 100% = cells with rucaparib alone
Measured viability by item

- Chemical smiles: "Cc1ccc(NC(=O)c2cccc(C(C)(C)C#N)c2)cc1Nc1ccc2ncn(C)c(=O)c2c1"
  Result units: "%"
  viability: 128
- Chemical smiles: "CC(C)c1ccccc1Cc1cc(C(=O)Nc2ccc(S(=O)(=O)c3ccccc3C(C)(C)C)cc2)c(O)c(O)c1O"
  Result units: "%"
  viability: 113
- Chemical smiles: "Fc1cc(-c2cccc3ncc(-c4cnn(C5CCNCC5)c4)nc23)cc(F)c1CN1CCOCC1"
  Result units: "%"
  viability: 112
- Chemical smiles: "O=c1cc(N2CCOCC2)oc2c(-c3cccc4c3sc3ccccc34)cccc12"
  Result units: "%"
  viability: 101
- Chemical smiles: "COc1ccc(-n2c(SCCCN3C(=O)c4cccc5cccc(c45)C3=O)nnc2-c2ccncc2)cc1"
  Result units: "%"
  viability: 117
- Chemical smiles: "CN(C)CC[C@H](CSc1ccccc1)Nc1ccc(S(=O)(=O)NC(=O)c2ccc(N3CCN(Cc4ccccc4-c4ccc(Cl)cc4)CC3)cc2)cc1[N+](=O)[O-]"
  Result units: "%"
  viability: 109
- Chemical smiles: "Nc1ccccc1NC(=O)c1ccc(CNc2nccc(-c3cccnc3)n2)cc1"
  Result units: "%"
  viability: 118

====

- Assay summary: viability loss in pontine glioma line – cell-based, JHH-DIPG-1, MIPE4.0, CellTiter-Glo, qHTS, dose response (AID 1347062);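 on AC50: cells exposed to compound for two days before readout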
- Run parameters: JHH-DIPG-1 viability, CellTiter-Glo ATP luminescence
Inconclusive results are not listed. Active and inactive are the calls of the source. The limit is not given here; nearly all actives have AC50 up to about 27 µM.

- Compound: "CCN1CCN(Cc2ccc(-c3cc4c(N[C@H](C)c5ccccc5)ncnc4[nH]3)cc2)CC1"
  AC50: "13.2 µM (active)"
- Compound: "CCCCCCCCCCCC(CC1OC(=O)C1CCCCCC)OC(=O)C(CC(C)C)NC=O (centres undefined)"
  AC50: "inactive"
- Compound: "C[C@H](NC(=O)/C(C#N)=C/c1cccc(Br)n1)c1ccccc1"
  AC50: "9.35 µM (active)"
- Compound: "CC(C)C(=O)Oc1ccc(CO)cc1[C@H](CCN(C(C)C)C(C)C)c1ccccc1"
  AC50: "inactive"
- Compound: "O=C(O)[C@H](CC(=O)N1C[C@H]2CCCC[C@H]2C1)Cc1ccccc1"
  AC50: "inactive"
- Compound: "CCOC(=O)N[C@@H]1CC[C@@H]2[C@@H](C1)C[C@H]1C(=O)O[C@H](C)[C@H]1[C@H]2/C=C/c1ccc(-c2cccc(F)c2)cn1"
  AC50: "inactive"
- Compound: "Oc1ccc(-c2ccc(-c3cc(Nc4cccc(CNC5CC5)c4)n[nH]3)cc2)c(O)c1"
  AC50: "1.66 µM (active)"
- Compound: "N[C@H]1CN(c2c(F)cc3c(=O)c(C(=O)O)cn(C4C[C@H]4F)c3c2Cl)CC12CC2 (some centres undefined)"
  AC50: "inactive"
- Compound: "CCCCN1CCC(CNC(=O)c2c3n(c4ccccc24)CCCO3)CC1"
  AC50: "inactive"
- Compound: "O=C(NCCCNc1nc(Nc2cccc(NC(=O)N3CCCC3)c2)ncc1I)c1cccs1"
  AC50: "23.5 µM (active)"
- Compound: "O=C(Nc1ccccc1)Nc1ccc(-c2ccc(C(=O)[C@@H]3CCC[C@H]3C(=O)O)cc2)cc1"
  AC50: "inactive"
- Compound: "COc1ccc2c(Oc3ccc(NC(=O)c4c(C)n(CC(C)(C)O)n(-c5ccccc5)c4=O)nc3)ccnc2c1"
  AC50: "inactive"
- Compound: "CCCCn1c(=O)n(Cc2ccccc2F)c(=O)c2[nH]c(Cc3ccc(NC(C)=O)cc3)nc21"
  AC50: "inactive"
- Compound: "CC(C)Nc1cc(C(F)(F)F)cc2nc(NC(=O)c3cccnc3)nn12"
  AC50: "inactive"
- Compound: "COc1cc2ncnc(-n3nc(-c4ccccn4)nc3N)c2cc1OC"
  AC50: "18.7 µM (active)"
- Compound: "C[C@]12CC[C@H](O)CC1=CC[C@@H]1[C@@H]2CC[C@]2(C)C(c3cccnc3)=CC[C@@H]12"
  AC50: "inactive"
- Compound: "C[C@@H]1C(=O)O[C@H]2CC34[C@H]5C[C@@H](C(C)(C)C)C36[C@@H](OC(=O)[C@@H]6O)O[C@@]4(C(=O)O5)[C@]21O (some centres undefined)"
  AC50: "inactive"
- Compound: "C[C@@H]1CN(Cc2ccc(F)cc2)[C@@H](C)CN1C(=O)c1cc2c(C(=O)C(=O)N(C)C)cn(C)c2cc1Cl"
  AC50: "inactive"
- Compound: "O=C(O)C1=CC(O)C(O)[C@H](O)C1 (some centres undefined)"
  AC50: "inactive"
